System: vancomycin-intermediate Staphylococcus aureus
Test: Broth microdilution MIC (Example 6)
Type: cell-based
Settings: S. aureus isolate NRS 1 (hVISA)
MIC values, listed per item

| Smiles str | Censoring sign | MIC (mg/L) |
| --- | --- | --- |
| CC(=O)NC[C@H]1CN(c2ccc(N3CCOCC3)c(F)c2)C(=O)O1 | = | 1 |
| CN[C@H](CC(C)C)C(=O)N[C@H]1C(=O)N[C@@H](CC(N)=O)C(=O)N[C@H]2C(=O)N[C@H]3C(=O)N[C@H](C(=O)N[C@H](C(=O)O)c4cc(O)cc(O)c4-c4cc3ccc4O)[C@H](O)c3ccc(c(Cl)c3)Oc3cc2cc(c3O[C@@H]2O[C@H](CO)[C@@H](O)[C@H](O)[C@H]2O[C@H]2C[C@](C)(N)[C@H](O)[C@H](C)O2)Oc2ccc(cc2Cl)[C@H]1O | = | 4 |
| CCCCCCCCCC(=O)N[C@@H](Cc1c[nH]c2ccccc12)C(=O)N[C@H](CC(N)=O)C(=O)N[C@@H](CC(=O)O)C(=O)N[C@@H]1C(=O)NCC(=O)N[C@@H](CCCN)C(=O)N[C@@H](CC(=O)O)C(=O)N[C@H](C)C(=O)N[C@@H](CC(=O)O)C(=O)NCC(=O)N[C@H](CO)C(=O)N[C@@H]([C@H](C)CC(=O)O)C(=O)N[C@@H](CC(=O)c2ccccc2N)C(=O)O[C@@H]1C | = | 1 |
| CCC[C@@H]1C[C@@H](C(=O)N[C@@H]([C@H]2O[C@H](SC)[C@H](O)[C@@H](O)[C@H]2O)[C@H](C)Cl)N(C)C1 | > | 8 |
